OBSERVABLE: melting point
Note to self: number, then unit, no commentary.

| COMPOUND | TEST_VALUE |
| --- | --- |
| O=CNCCN1CCC(Nc2nc3ccccc3n2Cc2ccccn2)CC1 | 146 °C |
| NCCCCN1CCC(Nc2nc3ccccc3n2Cc2ccccn2)CC1 | 94 °C |
| CC(C)C(N)CN1CCC(Nc2nc3ccccc3n2Cc2ccccn2)CC1 (centres unmarked) | 115 °C |
| CCC(CN)N1CCC(Nc2nc3ccccc3n2Cc2ccccn2)CC1 (centres unmarked) | 112 °C |

Query compound follows.
Tell me the measured melting point of CC(CN)N1CCC(Nc2nc3ccccc3n2C(C)c2ccccn2)CC1 (centres unmarked) , please. 85 °C

----------
# ASSAY_SUMMARY: Cytotoxicity in mock-infected HeLa cells (tetrazolium/MTT colorimetric assay)
# Format: cell-based
# TEST_CONTEXT: human
OBSERVABLE: CC50 at 7 days

So what does the record say about CC50 at 7 days for Cc1ccc(OCCO)c(Cn2c(NC3CCN(CCN)CC3)nc3ccccc32)n1 ? > 100 µM
